target: human ether-à-go-go-related gene (hERG) potassium channel (human, UniProt Q12809); assay: primary screen, population patch clamp on CHO cells stably expressing hERG; higher = less effect of the substance;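 also: peak tail current of the secondary pulse compared with the same well before compound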
Sequence (Q12809 whole entry, looked up): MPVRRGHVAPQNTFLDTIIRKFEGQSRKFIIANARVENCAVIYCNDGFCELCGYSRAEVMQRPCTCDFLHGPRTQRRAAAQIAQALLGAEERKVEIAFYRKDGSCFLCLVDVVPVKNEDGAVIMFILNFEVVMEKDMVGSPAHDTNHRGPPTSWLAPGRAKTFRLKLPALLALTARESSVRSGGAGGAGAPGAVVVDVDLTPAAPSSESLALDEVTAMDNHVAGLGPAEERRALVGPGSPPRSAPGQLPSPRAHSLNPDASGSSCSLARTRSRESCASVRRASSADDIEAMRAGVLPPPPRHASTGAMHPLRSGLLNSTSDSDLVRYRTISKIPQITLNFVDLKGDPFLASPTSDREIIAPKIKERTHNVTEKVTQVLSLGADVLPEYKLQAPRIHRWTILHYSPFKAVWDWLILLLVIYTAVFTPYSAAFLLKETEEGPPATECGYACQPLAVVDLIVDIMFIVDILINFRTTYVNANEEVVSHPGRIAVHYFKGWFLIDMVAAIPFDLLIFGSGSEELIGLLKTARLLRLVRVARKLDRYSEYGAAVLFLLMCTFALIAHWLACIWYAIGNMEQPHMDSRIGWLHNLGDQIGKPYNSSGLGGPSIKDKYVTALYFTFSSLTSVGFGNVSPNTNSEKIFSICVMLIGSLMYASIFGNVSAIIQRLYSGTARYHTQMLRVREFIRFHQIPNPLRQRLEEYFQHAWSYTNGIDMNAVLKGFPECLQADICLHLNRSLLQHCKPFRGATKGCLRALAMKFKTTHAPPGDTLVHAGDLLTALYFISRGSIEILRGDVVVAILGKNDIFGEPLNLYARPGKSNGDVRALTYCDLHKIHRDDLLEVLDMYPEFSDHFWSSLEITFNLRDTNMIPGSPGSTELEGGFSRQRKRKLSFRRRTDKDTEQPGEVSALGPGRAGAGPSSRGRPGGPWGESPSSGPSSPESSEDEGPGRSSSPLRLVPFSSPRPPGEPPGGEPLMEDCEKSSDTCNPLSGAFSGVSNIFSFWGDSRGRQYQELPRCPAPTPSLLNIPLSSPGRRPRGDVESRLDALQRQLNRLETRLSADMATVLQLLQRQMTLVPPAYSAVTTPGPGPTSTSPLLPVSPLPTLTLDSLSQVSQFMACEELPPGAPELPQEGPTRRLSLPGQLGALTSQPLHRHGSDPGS
About 14,000 (4.5%) of roughly 310,000 compounds showed an effect of 50% or more. Effects have a minus sign here. This is one part of a sample in which strong results are shown more often than they occur.
parameter: hERG current change (%, negative = inhibition) at 10uM (%)
Give the number; % is assumed, so skip it.

Lab note: measured hERG current change (%, negative = inhibition) at 10uM of `C[C@]12CC[C@H]3[C@@H](CC[C@]4(O)C[C@@H](O)CC[C@]34C=O)[C@@]1(O)CC[C@@H]2C1=CC(=O)OC1` was 14

Lab note: measured hERG current change (%, negative = inhibition) at 10uM of `Cn1c(=O)c2c(SCc3ccccn3)nc(CC(C)(C)C)nc2n(C)c1=O` was -79.4

Lab note: measured hERG current change (%, negative = inhibition) at 10uM of `CCOC(=O)Cn1c(=O)c2c(nc(N3CCOCC3)n2C)n(C)c1=O` was -4.47

Lab note: measured hERG current change (%, negative = inhibition) at 10uM of `Cc1ccc(CNC(=O)CCCOc2cc(=O)n(C)c3ccccc23)o1` was -17.9

Lab note: measured hERG current change (%, negative = inhibition) at 10uM of O=C(NCCCn1ccnc1)C(Cc1ccccc1)N1C(=O)c2ccccc2C1=O (centres unmarked) was -34.5

Lab note: measured hERG current change (%, negative = inhibition) at 10uM of `CCc1nc(SCc2ccccn2)c2c(=O)n(C)c(=O)n(C)c2n1` was 0.896

Lab note: measured hERG current change (%, negative = inhibition) at 10uM of `COc1cccc(OC)c1OC(=O)/C=C/c1ccc(C)o1` was 6.2

Lab note: measured hERG current change (%, negative = inhibition) at 10uM of CCc1ccc(N(C(=O)c2csnn2)C(C(=O)NC(C)(C)C)c2cccnc2)cc1 (centres unmarked) was 4.59

Lab note: measured hERG current change (%, negative = inhibition) at 10uM of `Cn1c(=O)oc2cc(S(=O)(=O)Nc3cccc([N+](=O)[O-])c3)ccc21` was 4.69

Lab note: measured hERG current change (%, negative = inhibition) at 10uM of `Cc1[nH]c2ccccc2c1SCc1nnc(SCc2ccccc2)n1C` was 4.6

Lab note: measured hERG current change (%, negative = inhibition) at 10uM of `Cn1c(=O)c2c(SCc3ccccn3)nc(C3CC3)nc2n(C)c1=O` was 6.51

Lab note: measured hERG current change (%, negative = inhibition) at 10uM of `Cc1cccc2c(CC(=O)Nc3ccccc3)noc12` was -0.38

Lab note: measured hERG current change (%, negative = inhibition) at 10uM of `COc1cccc(/C=N/NC(=O)CCNc2n[nH]c(=O)[nH]c2=O)c1OC` was 15.9

Lab note: measured hERG current change (%, negative = inhibition) at 10uM of `O=C(CNc1ccc2c(c1)OCO2)N/N=C\c1ccccc1Cl` was 3.98
